Target: IL-2 receptor βγ complex (CD122/CD132) on HEK-Blue IL-2Rβγ reporter cells (UniProt P14784)
Sequence (P14784 27-551 limits assumed, chain 1 of 2): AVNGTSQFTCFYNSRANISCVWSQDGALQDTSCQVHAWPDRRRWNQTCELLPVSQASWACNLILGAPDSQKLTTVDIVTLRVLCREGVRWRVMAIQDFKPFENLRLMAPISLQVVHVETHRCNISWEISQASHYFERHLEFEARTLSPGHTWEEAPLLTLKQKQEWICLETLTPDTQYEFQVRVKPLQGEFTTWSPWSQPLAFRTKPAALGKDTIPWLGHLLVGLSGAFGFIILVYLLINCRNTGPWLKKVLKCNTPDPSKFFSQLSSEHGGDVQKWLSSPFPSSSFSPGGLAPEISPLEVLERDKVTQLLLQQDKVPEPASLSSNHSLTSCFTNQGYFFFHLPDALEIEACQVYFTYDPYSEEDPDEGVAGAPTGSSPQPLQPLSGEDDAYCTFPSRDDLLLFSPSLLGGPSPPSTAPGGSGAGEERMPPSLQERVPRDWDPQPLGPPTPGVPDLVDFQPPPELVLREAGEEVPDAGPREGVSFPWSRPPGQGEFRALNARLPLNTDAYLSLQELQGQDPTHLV
Sequence (P31785 23-369 limits assumed, chain 2 of 2, further chain): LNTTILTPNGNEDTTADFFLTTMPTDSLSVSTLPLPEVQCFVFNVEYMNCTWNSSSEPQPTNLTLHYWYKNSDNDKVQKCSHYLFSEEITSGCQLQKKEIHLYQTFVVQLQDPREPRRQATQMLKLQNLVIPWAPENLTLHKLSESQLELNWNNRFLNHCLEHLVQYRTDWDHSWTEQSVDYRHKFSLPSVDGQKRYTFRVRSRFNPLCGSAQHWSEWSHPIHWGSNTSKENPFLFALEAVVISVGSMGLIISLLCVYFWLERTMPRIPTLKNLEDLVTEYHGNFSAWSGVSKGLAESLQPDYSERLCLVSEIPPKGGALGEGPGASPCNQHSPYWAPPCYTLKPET
Experiment: cell-based or functional assay
Bridges are numbered along the chain shown (N, C = ends). Primed or numbered codes have the meaning given here. [ ]: non-standard residue; d: D form. Yn3(5) = tyrosine residue modified with an azide-capped PEG9 group (O-(PEG9-azido)-tyrosine); Ygp(5) = O-(8x polyethylene glycol-amino)-tyrosine (Tyr-PEG8-amine); Ygp = O-(8x polyethylene glycol-amino)-tyrosine; Yn3 = O-(9x polyethylene glycol-azido)-tyrosine; hSer = N[C@@H](CCO)C(=O)O; Nle = CCCC[C@H](N)C(=O)O
readout-name: Average EC50, HEK-Blue IL-2R (CD122+, CD132+) reporter assay (nM)
Report as a plain number; the unit nM is understood.

Please review the following examples before continuing.
CMP-320, Matriptase cleaved molecule (ligand, lactam N-34; also: treated with matriptase (cleavage site not given here)) SGRVAPQPLVDAPTSSSTKKTQLQLEHLLLDLQEILNGINNYKNPKLTR[Nle]L[hSer][Yn3(5)]KF[Ygp(5)][Nle]PKKATELKHLQCLEEELKPLEEVL[hSer]LAQSKNFHLRPRDLISNINVIVLELKGSETTF[hSer]CEYADETATIVEFLNRWITFSQSIISTLT | 10.8
CMP-319 (ligand, lactam N-33) RGRRVANLVGAPTSSSTKKTQLQLEHLLLDLQEILNGINNYKNPKLTR[Nle]L[hSer][Yn3(5)]KF[Ygp(5)][Nle]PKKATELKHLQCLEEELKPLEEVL[hSer]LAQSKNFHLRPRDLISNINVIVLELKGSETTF[hSer]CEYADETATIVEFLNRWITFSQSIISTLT | 1.05

Next item in the queue.
Quick one: Average EC50, HEK-Blue IL-2R (CD122+, CD132+) reporter assay of CMP-318, MMP2 cleaved molecule (ligand, not fully specified (bridges)) SGRVANLVGAPTSSSTKKTQLQLEHLLLDLQEILNGINNYKNPKLTR[Nle]L[hSer][Yn3]KF[Ygp][Nle]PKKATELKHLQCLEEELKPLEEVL[hSer]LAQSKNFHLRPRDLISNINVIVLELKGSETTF[hSer]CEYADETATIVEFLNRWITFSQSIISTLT ?
0.0259

Ref: patent US20240417436A1
